- Subject of test: P-selectin (Homo sapiens, UniProt P16109)
- Sequence (P16109 whole entry): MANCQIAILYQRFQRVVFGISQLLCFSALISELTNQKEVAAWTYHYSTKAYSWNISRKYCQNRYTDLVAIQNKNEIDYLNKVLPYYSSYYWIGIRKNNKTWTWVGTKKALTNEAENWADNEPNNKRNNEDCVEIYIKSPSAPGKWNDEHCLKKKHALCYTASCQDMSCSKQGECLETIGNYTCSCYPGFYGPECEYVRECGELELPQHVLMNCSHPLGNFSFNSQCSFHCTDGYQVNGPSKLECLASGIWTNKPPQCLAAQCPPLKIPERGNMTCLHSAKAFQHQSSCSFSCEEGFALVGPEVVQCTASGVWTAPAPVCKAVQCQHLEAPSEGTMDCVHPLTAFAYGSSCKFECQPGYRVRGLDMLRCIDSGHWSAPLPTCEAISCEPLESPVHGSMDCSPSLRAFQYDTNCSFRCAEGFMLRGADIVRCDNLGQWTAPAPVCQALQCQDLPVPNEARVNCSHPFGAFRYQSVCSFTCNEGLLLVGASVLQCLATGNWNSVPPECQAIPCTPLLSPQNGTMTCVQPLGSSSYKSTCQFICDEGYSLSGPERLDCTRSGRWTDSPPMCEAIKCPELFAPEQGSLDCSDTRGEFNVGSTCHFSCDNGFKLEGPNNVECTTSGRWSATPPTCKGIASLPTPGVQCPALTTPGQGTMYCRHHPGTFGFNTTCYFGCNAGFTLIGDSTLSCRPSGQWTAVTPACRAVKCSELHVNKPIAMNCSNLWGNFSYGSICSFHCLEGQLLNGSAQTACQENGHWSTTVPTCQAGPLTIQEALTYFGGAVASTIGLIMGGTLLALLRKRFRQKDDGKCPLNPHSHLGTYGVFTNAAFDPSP
Readout type: IC50 (µM)
Form entry: value (µM) — number only.

Prompt: I have this molecule here, CCCCCCCCCCCCCCC(CCCCCCCCCCCCCC)CNC(=O)c1cc(CSC2OC(C)C(O)C(O)C2O)cc(C(=O)O)c1 (stereo unspecified) , and I need its recorded IC50.
Response: 10.6

* * *

- Assay comment: Cell cytotoxicity of compound was evaluated In vitro in P-selectin mediated cell adhesion assay at a concentration of 30 uM
- Type: functional
Readout type: Death (%)
Form entry: value (%) — number only.

Prompt: I have this compound here, CCCCCCCCCCCCCCC(CCCCCCCCCCCCCC)C(=O)N[C@@H](CO[C@@H]1O[C@@H](C)[C@@H](O)[C@H](O)[C@@H]1O)C(=O)N[C@@H](CCC(=O)O)C(=O)NC , and I need its recorded Death.
Response: 1.7

Prompt: I have this compound here, CCCCCCCCCCCCCCC(CCCCCCCCCCCCCC)CNC(=O)c1cc(CSC2OC(C)C(O)C(O)C2O)cc(C(=O)NCCC(=O)O)c1 (centres undefined) , and I need its recorded Death.
Response: 2.8

Prompt: I have this compound here, CCCCCCCCCCCCCCC(CCCCCCCCCCCCCC)CNC(=O)c1cc(CSC2OC(C)C(O)C(O)C2O)cc(C(=O)NC(CCC(=O)O)C(=O)NC)c1 (centres undefined) , and I need its recorded Death.
Response: 5.3

Prompt: I have this compound here, CCCCCCCCCCCCCCC(CCCCCCCCCCCCCC)CNC(=O)c1cc(CSC2OC(C)C(O)C(O)C2O)cc(C(=O)O)c1 (centres undefined) , and I need its recorded Death.
Response: 1.9

Data origin: ChEMBL document CHEMBL1133941
